- Test system: RPMI-8226 leukemia
- Method description: NCI tumour cell line growth inhibition, 48 h
Could you please report measured TGI for the items listed next?

Example cases with answers are listed next.
CC1CCC2(C(=O)O)CCC3(C)C(=CCC4C5(C)CC(O)C(O)C(C)(CO)C5C(O)CC43C)C2C1C (stereo not drawn) ... 80.4 µM
Cc1c(F)c(N)c2c(=O)cc(-c3ccc(NC(=O)CN(C)C)c(F)c3)oc2c1F ... > 83 µM

// below: TGI requested for another compound
The recorded TGI for entry Cc1ccc(C)c(NC(=O)CC/C(=N\NC(=O)C(=O)NN)C(C)C(=O)c2ccc(O)cc2)c1 (stereo not drawn) equals > 100 µM
